assay: Example 5: degradation over time of black currant anthocyanosides at 37° C., pH 7.0, with/without GSH (HPLC); type: physicochemical; settings: GSH protected sample (20 mg), pH 7.0, 37° C., 4:00 h
experimental_endpoint: Peak Area
Lab note: jot the number down without any unit.

Solved entries (count: 3):
{"columns": ["molecule", "Peak Area"],
 "data": [
  ["OC[C@H]1O[C@@H](Oc2cc3c(O)cc(O)cc3[o+]c2-c2ccc(O)c(O)c2)[C@H](O)[C@@H](O)[C@@H]1O [Cn-3O-Glc, Cyanidin 3-o-glucoside]", 315.7],
  ["C[C@@H]1O[C@@H](OC[C@H]2O[C@@H](Oc3cc4c(O)cc(O)cc4[o+]c3-c3cc(O)c(O)c(O)c3)[C@H](O)[C@@H](O)[C@@H]2O)[C@H](O)[C@H](O)[C@H]1O [Dp-3-O-Rut, Delphinidin-3-O-rutinoside]", 2763.6],
  ["OC[C@H]1O[C@@H](Oc2cc3c(O)cc(O)cc3[o+]c2-c2cc(O)c(O)c(O)c2)[C@H](O)[C@@H](O)[C@@H]1O [Dp-3O-Glc, Delphinidin 3-o-glucoside]", 745.6]
]}

// query Entry under review: C[C@@H]1O[C@@H](OC[C@H]2O[C@@H](Oc3cc4c(O)cc(O)cc4[o+]c3-c3ccc(O)c(O)c3)[C@H](O)[C@@H](O)[C@@H]2O)[C@H](O)[C@H](O)[C@H]1O [Cn-3-O-Rut, Cyanidin-3-O-rutinoside] . Reported Peak Area?
// result 2298.9

* * *

Property: % left, Blank; scope: individual compounds
experiment: Example 3: stability of black currant extract anthocyanosides, 4 hours at 37° C., pH 7.0, with/without DHLA, GSH or L-cysteine (HPLC); assay type: physicochemical; conditions: unprotected, pH 7.0, 37° C., 4 hours
Reply with the number, then its unit.

Solved entries (count: 3):
{"columns": ["compound", "% left, Blank"],
 "data": [
  ["OC[C@H]1O[C@@H](Oc2cc3c(O)cc(O)cc3[o+]c2-c2ccc(O)c(O)c2)[C@H](O)[C@@H](O)[C@@H]1O [Cn-3O-Glc, Cyanidin 3-o-glucoside]", "31.4%"],
  ["OC[C@H]1O[C@@H](Oc2cc3c(O)cc(O)cc3[o+]c2-c2cc(O)c(O)c(O)c2)[C@H](O)[C@@H](O)[C@@H]1O [Dp-3O-Glc, Delphinidin 3-o-glucoside]", "9.5%"],
  ["C[C@@H]1O[C@@H](OC[C@H]2O[C@@H](Oc3cc4c(O)cc(O)cc4[o+]c3-c3cc(O)c(O)c(O)c3)[C@H](O)[C@@H](O)[C@@H]2O)[C@H](O)[C@H](O)[C@H]1O [Dp-3-O-Rut, Delphinidin-3-O-rutinoside]", "12.0%"]
]}

// query Entry under review: C[C@@H]1O[C@@H](OC[C@H]2O[C@@H](Oc3cc4c(O)cc(O)cc4[o+]c3-c3ccc(O)c(O)c3)[C@H](O)[C@@H](O)[C@@H]2O)[C@H](O)[C@H](O)[C@H]1O [Cn-3-O-Rut, Cyanidin-3-O-rutinoside] . Reported % left, Blank?
// result 33.4%

* * *

assay: Example 3: stability of black currant extract anthocyanosides, 4 hours at 37° C., pH 7.0, with/without DHLA, GSH or L-cysteine (HPLC); type: physicochemical; conditions: pH 7.0, 37° C., 4 hours
experimental_endpoint: Peak Area, DHLA 20 mg
Lab note: jot the number down without any unit.

Solved entries (count: 2):
{"columns": ["compound", "Peak Area, DHLA 20 mg"],
 "data": [
  ["C[C@@H]1O[C@@H](OC[C@H]2O[C@@H](Oc3cc4c(O)cc(O)cc4[o+]c3-c3cc(O)c(O)c(O)c3)[C@H](O)[C@@H](O)[C@@H]2O)[C@H](O)[C@H](O)[C@H]1O [Dp-3-O-Rut, Delphinidin-3-O-rutinoside]", 2692],
  ["OC[C@H]1O[C@@H](Oc2cc3c(O)cc(O)cc3[o+]c2-c2ccc(O)c(O)c2)[C@H](O)[C@@H](O)[C@@H]1O [Cn-3O-Glc, Cyanidin 3-o-glucoside]", 254.1]
]}

// query Entry under review: OC[C@H]1O[C@@H](Oc2cc3c(O)cc(O)cc3[o+]c2-c2cc(O)c(O)c(O)c2)[C@H](O)[C@@H](O)[C@@H]1O [Dp-3O-Glc, Delphinidin 3-o-glucoside] . Reported Peak Area, DHLA 20 mg?
// result 770.7

// query Now give it for C[C@@H]1O[C@@H](OC[C@H]2O[C@@H](Oc3cc4c(O)cc(O)cc4[o+]c3-c3ccc(O)c(O)c3)[C@H](O)[C@@H](O)[C@@H]2O)[C@H](O)[C@H](O)[C@H]1O [Cn-3-O-Rut, Cyanidin-3-O-rutinoside] too.
// result 1809
